TEST TARGET: GST-Dm-Relish (Drosophila melanogaster, UniProt Q94527 99-473)
Sequence: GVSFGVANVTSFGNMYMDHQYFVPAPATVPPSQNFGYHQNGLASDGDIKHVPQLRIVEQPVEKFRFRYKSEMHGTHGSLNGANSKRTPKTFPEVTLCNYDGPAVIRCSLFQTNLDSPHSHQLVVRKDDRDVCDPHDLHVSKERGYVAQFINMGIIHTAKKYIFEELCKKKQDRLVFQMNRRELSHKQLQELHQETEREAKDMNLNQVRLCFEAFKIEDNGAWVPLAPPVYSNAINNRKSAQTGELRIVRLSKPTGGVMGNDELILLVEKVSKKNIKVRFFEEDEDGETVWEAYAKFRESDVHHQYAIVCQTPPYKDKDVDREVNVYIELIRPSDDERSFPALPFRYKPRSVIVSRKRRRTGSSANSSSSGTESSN
ASSAY REMARKS: protein-binding microarray (PBM); PBM: ~300 nM protein, 6 mM HEPES pH 7.8, 80 mM KCl, 0.5 mM EDTA, 0.5 mM EGTA, 6% glycerol, 35 ng/ul poly-dIdC, 1% milk, 1 h, room temperature; Ap Aiptasia and Nv Nematostella (sea anemones) / Co Capsaspora / Aq Amphimedon (sponge) / Dm Drosophila / Hu human; RHD is the Rel homology domain; high values mean tight binding
CONDITIONS: dsDNA, one strand shown
QUANTITY KIND: binding signal

CCGATTAACATCAGGGCCTCCCCTGATGTTAATCGGGTCTTGATTCGCTTGACGCTGCTG :: 7.13 z-score
CCGATTAACATCATGATATCCGGTGATGTTAATCGGGTCTTGATTCGCTTGACGCTGCTG :: 1.07 z-score
CCGATTAACATCAAATTTCCCATTGATGTTAATCGGGTCTTGATTCGCTTGACGCTGCTG :: 2.68 z-score
CCGATTAACATCAAGGACTTTCCTGATGTTAATCGGGTCTTGATTCGCTTGACGCTGCTG :: 3.11 z-score
CCGATTAACATCAGGAAATAACATGATGTTAATCGGGTCTTGATTCGCTTGACGCTGCTG :: 2.04 z-score
CCGATTAACATCACACTCCCCCCTGATGTTAATCGGGTCTTGATTCGCTTGACGCTGCTG :: 3.37 z-score
CCGATTAACATCAGGATCTCCCCTGATGTTAATCGGGTCTTGATTCGCTTGACGCTGCTG :: 5.64 z-score
CCGATTAACATCAAATTCCCGCCTGATGTTAATCGGGTCTTGATTCGCTTGACGCTGCTG :: 3.49 z-score
CCGATTAACATCAGGAAAAACACTGATGTTAATCGGGTCTTGATTCGCTTGACGCTGCTG :: 2.61 z-score

Where do these numbers come from? They come from paper PMC5700166.
